The reported measurements were obtained from the METLIN SMRT retention time set (Domingo-Almenara et al. 2019).

- assay-notes: gradient 5% acetonitrile 3 min, to 50% in 2 min, to 85% in 15 min, held 3 min, 100 µL/min
- settings: column: Zorbax Extend-C18 2.1 x 50 mm; eluents: water / acetonitrile, 0.1% formic acid
observed-property: RP-LC retention time

"Cc1ccc(Cn2cc(-c3ccncc3)cc2C(=O)NCC(C)C)cc1" yielded RP-LC retention time of 720 s

RP-LC retention time for "O=C(Cn1nc2n(c1=O)CCCC2)Nc1cccc(Br)c1" is 686 s

Recorded result, CCOC(=O)CC(NC(=O)CCc1c(C)nc2ncnn2c1C)c1ccc(C)cc1 (configuration not stated) , RP-LC retention time: 695 s

For reference, reported RP-LC retention time for "Cc1nc2cc(-c3noc(Cc4ccc(F)cc4)n3)ccc2o1" stands at 983 s

The compound listed as O=S(=O)(NC1CCCCC1n1cc(-c2ccccc2)nn1)c1ccccc1 (configuration not stated) shows RP-LC retention time equal to 789 s

Entry "O=C(NCCc1cccs1)c1c(O)c2cccnc2n(-c2cccc(F)c2)c1=O" , RP-LC retention time reported as 1180 s

Per the record, "CCc1ccccc1NC(=O)Cn1c(=O)c(CCC(=O)NCC(C)C)nc2ccccc21" has RP-LC retention time of 854 s

According to the records, this compound "CCOc1ccc(C(=O)N2C[C@@H]3C[C@H]2C[C@@H]3NS(=O)(=O)c2ccccc2)cc1" displays RP-LC retention time of 764 s

Briefly, RP-LC retention time measured for "CCCNC(=O)C1CCN(c2ccc(SCC(=O)Nc3ccc(F)c(Cl)c3)nn2)CC1" : 692 s

// "Cc1cccc(N2CCN(S(=O)(=O)c3cc(-c4nnc(C5CCC5)o4)co3)CC2)c1" : RP-LC retention time value = 1110 s

RP-LC retention time recorded for this compound, "COc1cc(NC(=O)c2nnn(-c3cc(OC)cc(OC)c3)c2C)cc(OC)c1" , is 1050 s

Consider CN1C(=O)c2cc(C(=O)Nc3ccc(F)cc3F)nn2CC1(C)C(=O)NC1CCCCC1 (configuration not stated) . Its measured RP-LC retention time is 732 s

Entry "CCCNC(=O)CCc1c(-c2ccc(F)cc2)nc2ccccn12" — recorded RP-LC retention time = 608 s

Field RP-LC retention time (entry "COc1cccc(-c2ccc3nc(N4CCC(C(=O)N5CCOCC5)CC4)sc3n2)c1" ) reads 843 s

Per the records, this compound ( Cc1cc(C(=O)N2c3ccccc3CC2c2nnc(C(C)C)o2)nn1C (configuration not stated) ) has RP-LC retention time equal to 829 s

compound "C[C@@H]1COCCN1c1cc(C2(S(C)(=O)=O)CC2)nc(-c2cccc3[nH]ccc23)n1" , RP-LC retention time observed: 775 s

Entry under test: "CCOC(=O)c1c(C)[nH]c(CCC(=O)NCCOC)c1C" . Its RP-LC retention time was 668 s

Documented RP-LC retention time of COc1ccc2c(c1)C1(CCN(C(=O)COc3ccccc3)C1)C(=O)N2 (configuration not stated) : 733 s

compound "CC(C)c1ccc(S(=O)(=O)N2CCc3nn(C)c(=O)n3CC2)cc1" , RP-LC retention time observed: 785 s

response.value for "Nc1cc(Nc2ccc(Br)cc2)nc(N)n1" (field: RP-LC retention time) = 688 s

Recorded result, "CCOc1ccccc1NC(=O)N1CCc2nc[nH]c2C1" , RP-LC retention time: 577 s

Sure, the documented RP-LC retention time for "COc1ccc(NC(=O)CSc2nnc3c4cc(-c5ccc(F)cc5)nn4ccn23)c(OC)c1" is 648 s

Per the records, this compound ( "O=C(NOC[C@H](O)CO)c1ccc(F)c(F)c1Nc1ccc(I)cc1F" ) has RP-LC retention time equal to 886 s

RP-LC retention time for "CSc1ccccc1CN1CCC(CNC(=O)C2(c3ccccc3)CCOCC2)CC1" is 588 s

Form: compound = "Fc1cc(F)cc(-c2nnc(Cc3nc(-c4cccnc4)no3)o2)c1" ; RP-LC retention time = 805 s

Entry under test: "O=C(NCc1csc(-c2ccccc2)n1)C1CCN(S(=O)(=O)c2ccccc2)CC1" . Its RP-LC retention time was 903 s

According to the records, this compound "O=C(c1ccc2cc[nH]c2c1)N1CCC2(CC1)N=C(c1ccccc1)NO2" displays RP-LC retention time of 770 s
